- experimental protocol: Selectivity index, ratio of CC50 against human HuH7 cells to EC50 against dengue virus 2
- Type: toxicity, cell-based, Huh-7
- test parameters: read-out: Ratio CC50/EC50
value kind: selectivity ratio
Respond numerically, and do not add a unit to the figure.

Sample answers from the record:
{"molecule": "C/C=C(\\C)C(=O)O[C@@H]1[C@H]2C=C3[C@@H]4CC(=O)O[C@@H](c5ccoc5)[C@]4(C)CC[C@@H]3[C@@](C)(C2=O)[C@@H]([C@@H](OC(C)=O)C(=O)OC)C1(C)C", "result number": 13.2}
{"molecule": "NC(=O)c1ncn([C@@H]2O[C@H](CO)[C@@H](O)[C@H]2O)n1", "result number": 4.47}
{"molecule": "C=C1[C@@H]2CC[C@@]3(C)[C@H](c4ccoc4)OC(=O)C[C@]13O[C@H]1CC(=O)C(C)(C)[C@H](CC(=O)OC)[C@]12C [METHYLANGOLENSATE]", "result number": 27}

Next molecule, please.
Value lookup for selectivity ratio; key = CC1(C)C(=O)C=C[C@]2(C)[C@H]3CC[C@@]4(C)[C@H](c5ccoc5)OC(=O)[C@H]5O[C@]54[C@]3(C)[C@H](O)C[C@@H]12 8.4
